Target: mUSP18 (Mus musculus)
Construct: (46-368); His-tag (N); made in house
Sequence (Q9WTV6 46-368): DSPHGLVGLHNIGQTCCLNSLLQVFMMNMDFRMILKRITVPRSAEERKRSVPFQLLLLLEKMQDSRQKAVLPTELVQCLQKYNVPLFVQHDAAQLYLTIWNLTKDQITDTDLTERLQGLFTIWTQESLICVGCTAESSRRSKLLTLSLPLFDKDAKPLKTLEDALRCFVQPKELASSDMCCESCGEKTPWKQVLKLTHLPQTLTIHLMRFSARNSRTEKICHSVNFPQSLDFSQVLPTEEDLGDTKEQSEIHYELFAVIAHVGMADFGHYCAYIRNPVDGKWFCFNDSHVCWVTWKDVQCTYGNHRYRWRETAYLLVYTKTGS
Assay: High-throughput screening, ISG15ct-RhoMP, single dose 1.25 µM
Assay type: biochemical, murine
Conditions: mUSP18 %inhibition; carboxylic acid (CA) with coupling reagents DIC/HOBT; read-out: %inh CA + DIC/HOBT
experimental.readout: inhibition at 1.25 µM (%)
# number only, unit % dropped from output

Which inhibition at 1.25 µM is reported for this compound? `O=C(O)c1cc(-c2ccc(Br)cc2)ns1`
9.48

// inhibition at 1.25 µM lookup, key: CC(C(=O)O)n1nc(C(F)(F)F)cc1C1CC1 (stereo not drawn)
2.83

Item under review: `O=C(O)C1(c2ccccc2Cl)CCOCC1` . Reported inhibition at 1.25 µM?
11.9

What does the data say about its inhibition at 1.25 µM? Entry: `O=C(O)c1cc(COc2ccc(F)cc2F)on1`
-7.97

Tell me the measured inhibition at 1.25 µM of `O=C(O)c1cccc(N2CCOCC2)n1` , please.
-0.29

Value lookup for inhibition at 1.25 µM; key = `O=C(O)c1ccc(B(O)O)cc1`
-9.11
